Would you kindly list kinact/KI for each of these compounds?
- system: caspase-8 (Homo sapiens, UniProt Q14790)
- Construct: p10 and p20 subunits (Thornberry, N. A. et al, Nature, 1992, 356, 768) were expressed in E. coli; made in house; host or cells: E. coli
- Sequence (Q14790 217-374 limits assumed, species assumed): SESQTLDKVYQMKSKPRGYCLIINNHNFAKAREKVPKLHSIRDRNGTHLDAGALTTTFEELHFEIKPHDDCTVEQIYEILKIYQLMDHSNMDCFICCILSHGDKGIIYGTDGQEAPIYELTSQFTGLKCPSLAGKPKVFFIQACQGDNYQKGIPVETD
- Sequence (Q14790 385-479 limits assumed, species assumed): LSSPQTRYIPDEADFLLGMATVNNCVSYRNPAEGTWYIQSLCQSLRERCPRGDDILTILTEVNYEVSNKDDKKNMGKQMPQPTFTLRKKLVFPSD
- test_protocol: Assay for the caspase inhibitory effect (fluorescent substrate AcDEVD-AFC)
- Assay type: biochemical
- condition_set: pH 7.5; 2.1 nM caspase-8, 50 μM AcDEVD-AFC, 25° C., pH 7.50; read-out: Caspase-8 Kobs/[I] (converted)
# unit: M⁻¹ s⁻¹ | format: bare number

Enquiry: Any idea what kinact/KI came out for CCC(C(=O)NC(CC(=O)O)C(=O)CF)c1cccn(Cc2ccccc2C(C)(C)C)c1=O (centres unmarked) [Example 8] on caspase-8 (Homo sapiens, UniProt Q14790)?
Return: 33300

Enquiry: Any idea what kinact/KI came out for CCCC(C(=O)NC(CC(=O)O)C(=O)CF)c1cccn(Cc2ccccc2)c1=O (centres unmarked) [Example 7] on caspase-8 (Homo sapiens, UniProt Q14790)?
Return: 6670

Enquiry: Any idea what kinact/KI came out for CC(C)C(C(=O)NC(CC(=O)O)C(=O)CF)c1cccn(Cc2ccccc2)c1=O (centres unmarked) [Example 6] on caspase-8 (Homo sapiens, UniProt Q14790)?
Return: 3500

Enquiry: Any idea what kinact/KI came out for CCC(C(=O)NC(CC(=O)O)C(=O)CF)c1c(C)ccn(-c2ccccc2)c1=O (centres unmarked) [Example 1] on caspase-8 (Homo sapiens, UniProt Q14790)?
Return: 467

Enquiry: Any idea what kinact/KI came out for CCC(C(=O)NC(CC(=O)O)C(=O)CF)c1c(C)ccn(CC(C)C)c1=O (centres unmarked) [Example 4] on caspase-8 (Homo sapiens, UniProt Q14790)?
Return: 733

Enquiry: Any idea what kinact/KI came out for CCC(C(=O)NC(CC(=O)O)C(=O)CF)c1c(C)ccn(Cc2ccccc2)c1=O (centres unmarked) [Example 2] on caspase-8 (Homo sapiens, UniProt Q14790)?
Return: 1830

Enquiry: Any idea what kinact/KI came out for CCC(C(=O)NC(CC(=O)O)C(=O)CF)c1c(C)ccn(CCc2ccccc2)c1=O (centres unmarked) [Example 3] on caspase-8 (Homo sapiens, UniProt Q14790)?
Return: 750

Enquiry: Any idea what kinact/KI came out for CCC(C(=O)NC(CC(=O)O)C(=O)CF)c1cccn(Cc2ccccc2)c1=O (centres unmarked) [Example 5] on caspase-8 (Homo sapiens, UniProt Q14790)?
Return: 16700
